molecular target: T1, cynomolgus MCSP D3 (cynomolgus); assay: ratio of ProteOn IgG KD against parental M4-3/ML2 IgG
T1 construct: domain: D3; also called Cyno MCSP; cynomolgus homologue
Here the recorded fold increase over parent (IgG KD, comparative binding affinity) is given for each entry.
recordedMetric: fold increase over parent (IgG KD, comparative binding affinity) (fold)

>  <binder>
M4-3(B7)/ML2 IgG (antibody, V domains shown, Human IgG1 format) VH: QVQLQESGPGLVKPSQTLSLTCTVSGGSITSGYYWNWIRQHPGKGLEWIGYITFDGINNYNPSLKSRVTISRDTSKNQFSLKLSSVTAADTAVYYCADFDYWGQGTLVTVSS VL: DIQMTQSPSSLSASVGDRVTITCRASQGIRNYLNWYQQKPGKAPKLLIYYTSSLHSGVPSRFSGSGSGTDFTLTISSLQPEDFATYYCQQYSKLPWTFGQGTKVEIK

>  <result>
2.9

$$$$
>  <binder>
M4-3(A7)/ML2 IgG (antibody, V domains shown, Human IgG1 format) VH: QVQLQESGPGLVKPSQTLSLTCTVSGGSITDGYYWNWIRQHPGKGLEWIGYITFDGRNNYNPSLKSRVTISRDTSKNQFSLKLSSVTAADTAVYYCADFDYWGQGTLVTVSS VL: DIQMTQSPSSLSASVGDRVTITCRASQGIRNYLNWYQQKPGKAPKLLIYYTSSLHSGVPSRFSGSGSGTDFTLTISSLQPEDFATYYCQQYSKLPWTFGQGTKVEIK

>  <result>
2

$$$$
>  <binder>
M4-3/ML2 (C5) IgG (antibody, V domains shown, Human IgG1 format) VH: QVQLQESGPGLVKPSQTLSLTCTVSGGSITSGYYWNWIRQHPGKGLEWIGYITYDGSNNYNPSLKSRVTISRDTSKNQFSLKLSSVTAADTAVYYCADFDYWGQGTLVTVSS VL: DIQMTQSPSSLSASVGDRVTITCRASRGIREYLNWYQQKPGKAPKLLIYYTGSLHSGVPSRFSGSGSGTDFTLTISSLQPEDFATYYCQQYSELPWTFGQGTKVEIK

>  <result>
2

$$$$

Reference source for all entries: patent US20160130347A1
